- experiment description: Stability of the analytes in rat plasma QC samples under different storage conditions
- Format: in vitro ADME
- condition context: low QC level, nominal ng/mL: AST 100, FE 50, PRO 20, CH 100, PE 100, SAB 200, n = 6

smiles representation | Three freeze-thaw cycles measured value
O=C(/C=C/c1ccc(O)c(O)c1)O[C@@H]1C[C@](O)(C(=O)O)C[C@@H](O)[C@H]1O | 98.55
C[C@@]12C[C@@]3(O)O[C@@H](O1)[C@]1(COC(=O)c4ccccc4)[C@H]3C[C@@]12O[C@@H]1O[C@H](CO)[C@@H](O)[C@H](O)[C@H]1O | 99.68
COc1cc(/C=C/C(=O)O)ccc1O | 49.41
C[C@@H]1O[C@@H](O[C@H]2C(=O)c3c(O)cc(O)cc3O[C@@H]2c2ccc(O)c(O)c2)[C@H](O)[C@H](O)[C@H]1O | 97.89
O=Cc1ccc(O)c(O)c1 | 20.62
